Data credit: paper PMC6018403

METHOD NOTES: Multi-component pharmacokinetic study of GQD, GQD-GC and single herb extracts in rats (plasma, LC/MS/MS)
Type: in vivo, Sprague-Dawley rats
CONDITION LABEL: male, Sprague-Dawley, rat; GC (Gan-Cao) group: rats, oral extract 2.36 g/kg, plasma; read-out: Cmax
READOUT KIND: Cmax (ng/mL)
Give bare numbers, in ng/mL.

Observe how each entry below is paired with its result.
COc1ccc(-c2coc3cc(O)ccc3c2=O)cc1	1.71
CC1(C)[C@@H](O[C@H]2O[C@H](C(=O)O)[C@@H](O)[C@H](O)[C@H]2O[C@@H]2O[C@H](C(=O)O)[C@@H](O)[C@H](O)[C@H]2O)CC[C@]2(C)[C@H]3C(=O)C=C4[C@@H]5C[C@@](C)(C(=O)O)CC[C@]5(C)CC[C@@]4(C)[C@]3(C)CC[C@@H]12	46.4
CC1(C)[C@@H](O)CC[C@]2(C)[C@H]3C(=O)C=C4[C@@H]5C[C@@](C)(C(=O)O)CC[C@]5(C)CC[C@@]4(C)[C@]3(C)CC[C@@H]12	359

Now look at this one.
What does the record list as Cmax for O=C(/C=C/c1ccc(O)cc1)c1ccc(O)cc1O ?
1.16

----------
METHOD NOTES: Multi-component pharmacokinetic study of GQD, GQD-GC and single herb extracts in rats (plasma, LC/MS/MS)
Type: in vivo, Sprague-Dawley rats
CONDITION LABEL: male, Sprague-Dawley, rat, plasma, po, 2.36 g/kg, GC (Gan-Cao) group: rats, oral extract 2.36 g/kg, plasma; read-out: AUClast
READOUT KIND: AUC(0-t) (ng·h/mL)
Give bare numbers, in ng·h/mL.

Worked examples, 2 compounds total:
CC1(C)[C@@H](O)CC[C@]2(C)[C@H]3C(=O)C=C4[C@@H]5C[C@@](C)(C(=O)O)CC[C@]5(C)CC[C@@]4(C)[C@]3(C)CC[C@@H]12 [Compound 40, glycyrrhetinic acid]	9630
COc1ccc(-c2coc3cc(O)ccc3c2=O)cc1 [Compound 32, formononetin]	19.9

Attention now turns to another entry.
Consider the compound shown here: O=C(/C=C/c1ccc(O)cc1)c1ccc(O)cc1O [Compound 28, isoliquiritigenin] What is its recorded AUC(0-t)?
1.28

----------
METHOD NOTES: Multi-component pharmacokinetic study of GQD, GQD-GC and single herb extracts in rats (plasma, LC/MS/MS)
Format: in vivo, Sprague-Dawley rats
CONDITION LABEL: male, Sprague-Dawley, rat; GQD group: rats, oral GQD extract 18.9 g/kg, plasma; read-out: Tmax
READOUT KIND: Tmax (h)
Give bare numbers, in h.

Recorded results for 5 molecules are shown here.
O=c1c(-c2ccc(O)cc2)coc2c(C3OC(COC4OCC(O)(CO)C4O)C(O)C(O)C3O)c(O)cc(O)c12 (centres unmarked) [Compound 6]	8.39
CC1(C)[C@@H](O[C@H]2O[C@H](C(=O)O)[C@@H](O)[C@H](O)[C@H]2O[C@@H]2O[C@H](C(=O)O)[C@@H](O)[C@H](O)[C@H]2O)CC[C@]2(C)[C@H]3C(=O)C=C4[C@@H]5C[C@@](C)(C(=O)O)CC[C@]5(C)CC[C@@]4(C)[C@]3(C)CC[C@@H]12 [Compound 36, glycyrrhizic acid]	6.9
COc1ccc(-c2coc3cc(O[C@@H]4O[C@H](CO)[C@@H](O)[C@H](O)[C@H]4O)ccc3c2=O)cc1 [Compound 39, ononin]	0.86
COc1c(O)c(O[C@@H]2O[C@H](C(=O)O)[C@@H](O)[C@H](O)[C@H]2O)cc2oc(-c3ccccc3)cc(=O)c12 [Compound 38, lateriflorein 7-O-glucuronide]	0.44
COc1ccc(-c2coc3cc(O)ccc3c2=O)cc1 [Compound 32, formononetin]	2.92

Give me Tmax for each of these molecules, listed below.
1. O=C(/C=C/c1ccc(O)cc1)c1ccc(O)cc1O [Compound 28, isoliquiritigenin]
2. COc1ccc2c(c1O)-c1c(O)c(OC)cc3c1[C@H](C2)[N+](C)(C)CC3 [Compound 19, magnoflorine]
3. COc1c(O)cc(O)c2c(=O)cc(-c3ccccc3)oc12 [Compound 8, wogonin]

[5.33, 4.13, 7.89]

Hey, quick one: what's Tmax for each of these?
1. O=c1cc(-c2ccccc2)oc2cc(O)c(O)c(O)c12 [Compound 12, baicalein]
2. COc1ccc2cc3[n+](cc2c1OC)CCc1cc2c(cc1-3)OCO2 [Compound 24, berberine]
3. COc1cc2c(cc1O)CC[n+]1cc3c(OC)c(OC)ccc3cc1-2 [Compound 23, jatrorrhizine]
4. COc1c(O)cc(OC2OC(CO)C(O)C(O)C2O)c2c(=O)cc(-c3ccccc3)oc12 (centres unmarked) [Compound 13, wogonin 5-O-glucoside]

[0.42, 0.39, 0.72, 2]

Report Tmax for each item below.
1. O=c1c(-c2ccc(O)cc2)coc2cc(O[C@@H]3O[C@H](CO)[C@@H](O)[C@H](O)[C@H]3O)cc(O)c12 [Compound 4, genistin]
2. COc1ccc(C2=CC(=O)OC2Cc2ccc(O)cc2)c(OC2OC(CO)C(O)C(O)C2O)c1 [Compound 41, (4S)-puerol B 2″-O-glucopyranoside]

1. 1.04
2. 0.52

----------
METHOD NOTES: Multi-component pharmacokinetic study of GQD, GQD-GC and single herb extracts in rats (plasma, LC/MS/MS)
Type: in vivo, Sprague-Dawley rats
CONDITION LABEL: male, Sprague-Dawley, rat, in vivo, po, 2.36 g/kg
READOUT KIND: half-life (h)
One number for each entry, in h.

CC1(C(=O)O)CCC2(C)CCC3(C)C(=CC(=O)C4C5(C)CCC(OC6OC(C(=O)O)C(O)C(O)C6OC6OC(C(=O)O)C(O)C(O)C6O)C(C)(CO)C5CCC43C)C2C1 (centres unmarked)	2.3

Below: the item to evaluate.
# query: half-life of entry O=C1C[C@@H](c2ccc(O)cc2)Oc2cc(O)ccc21
9.84

----------
METHOD NOTES: Multi-component pharmacokinetic study of GQD, GQD-GC and single herb extracts in rats (plasma, LC/MS/MS)
Type: in vivo, Sprague-Dawley rats
CONDITION LABEL: male, Sprague-Dawley, rat, in vivo, po, 18.9 g/kg
Mark y only when half-life stays strictly below 300 min. Values equal to the cut-off are n.

Use these answered entries as a reference point.
c1c2c(cc3c1OCO3)-c1cc3ccc4c(c3c[n+]1CC2)OCO4	n
CC1(C(=O)O)CCC2(C)CCC3(C)C(=CC(=O)C4C5(C)CCC(OC6OC(C(=O)O)C(O)C(O)C6OC6OC(C(=O)O)C(O)C(O)C6O)C(C)(CO)C5CCC43C)C2C1 (stereo not drawn)	y
COc1cc2c(cc1OC)-c1cc3ccc(OC)c(OC)c3c[n+]1CC2	y

half-life strictly < 300 min for this molecule? O=c1c(-c2ccc(O)cc2)coc2cc(O)ccc12
n

Does this molecule meet the criterion half-life < 300 min? O=C1C[C@@H](c2ccc(O[C@@H]3O[C@H](CO)[C@@H](O)[C@H](O)[C@H]3O)cc2)Oc2cc(O)ccc21
n

Hello, is half-life of the following molecule strictly smaller than 300 min? O=C1C[C@@H](c2ccc(O)cc2)Oc2cc(O)ccc21
n

----------
METHOD NOTES: Multi-component pharmacokinetic study of GQD, GQD-GC and single herb extracts in rats (plasma, LC/MS/MS)
Assay type: in vivo, Sprague-Dawley rats
CONDITION LABEL: male, Sprague-Dawley, rat, in vivo, po, 18.9 g/kg; GQD group: rats, oral GQD 18.9 g/kg (1.5-fold of clinical dosage), plasma; read-out: AUClast
READOUT KIND: AUC(0-t)

Give the measured AUC(0-t) of O=c1c(-c2ccc(O)cc2)coc2cc(O[C@@H]3O[C@H](CO)[C@@H](O)[C@H](O)[C@H]3O)ccc12 .
> 300 ng·h/mL

----------
METHOD NOTES: Multi-component pharmacokinetic study of GQD, GQD-GC and single herb extracts in rats (plasma, LC/MS/MS)
Assay type: in vivo, Sprague-Dawley rats
CONDITION LABEL: male, Sprague-Dawley, rat; HQ (Huang-Qin) group: rats, oral extract 3.54 g/kg, plasma; read-out: Tmax
READOUT KIND: Tmax
Respond with the figure and its unit, in that order.

Below, each entry is followed by its recorded Tmax result.
COc1c(O)cc(O)c2c(=O)cc(-c3ccccc3)oc12 [Compound 8, wogonin]	8.02 h
O=c1cc(-c2ccccc2)oc2cc(O)c(O)c(O)c12 [Compound 12, baicalein]	1 h

For every listed record, write down its Tmax.
1. O=C(O)[C@H]1O[C@@H](Oc2cc3oc(-c4ccccc4)cc(=O)c3c(O)c2O)[C@H](O)[C@@H](O)[C@@H]1O [Compound 17, baicalin]
2. O=C(O)[C@H]1O[C@@H](Oc2cc(O)c3c(=O)cc(-c4ccccc4)oc3c2O)[C@H](O)[C@@H](O)[C@@H]1O [Compound 14, norwogonin 7-O-glucuronide]
3. COc1c(O)cc(OC2OC(CO)C(O)C(O)C2O)c2c(=O)cc(-c3ccccc3)oc12 (stereo not drawn) [Compound 13, wogonin 5-O-glucoside]
4. COc1c(O)c(O[C@@H]2O[C@H](C(=O)O)[C@@H](O)[C@H](O)[C@H]2O)cc2oc(-c3ccccc3)cc(=O)c12 [Compound 38, lateriflorein 7-O-glucuronide]

1. 7.79 h
2. 7.36 h
3. 0.1 h
4. 0.31 h
